// values below are reported pIC50
Tested on: CEM cells HIV-1 protection, formazan growth assay
assayProcedure: NCI AIDS Antiviral Assay
experimentalConditions: measured here: growth of uninfected CEM cells
The read-out pIC50 is expressed as -log10 of concentration in moles per litre.

Solved cases below.
compound	targetOrTestSystem	pIC50
COc1ccc(/C=C2/SC(=S)NC2=O)c(OC)c1OC	CEM cells HIV-1 protection, formazan growth assay	5.11
NC(c1ccccc1)P(=O)(OCc1ccc([N+](=O)[O-])cc1)OCc1ccc([N+](=O)[O-])cc1 (stereo not given)	CEM cells HIV-1 protection, formazan growth assay	4.27
COc1ccc(N=Nc2cc(OC)c(N=Nc3c(O)c4ccccc4[nH]c3=O)cc2OC)cc1	CEM cells HIV-1 protection, formazan growth assay	4.81

Q: Requested field: pIC50. Item: C1=Cc2ccccc2C(c2ccccc2)=NC1
Result: 3.84
